Recorded protein stability index, one value per entry.
B1: TRIM55 (parent)
chain: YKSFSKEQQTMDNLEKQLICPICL

variants of: B1; experiment: protein stability index of a GFP-peptide fusion (GPS, HEK-293T) (PSI 1-6); higher = more stable; settings: c terminus: a fixed tail appended;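 further: lentivirally expressed fusions sorted by FACS into six bins by GFP to DsRed ratio, PSI derived from sequencing read proportions per bin multiplied by bin number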

- seqText: "PKSFSKEQQTMDNLEKQLICPICL [Y1P]"
  protein stability index: 2.7
- seqText: "YKSFSKEQQTMENLEKQLICPICL [D12E]"
  protein stability index: 2.59
- seqText: "YKSWSKEQQTMDNLEKQLICPICL [F4W]"
  protein stability index: 1.74
- seqText: "YKSFSKEQQTMDNLEKQHICPICL [L18H]"
  protein stability index: 2.75
- seqText: "YKSFSKEQATMDNLEKQLICPICL [Q9A]"
  protein stability index: 2.25
- seqText: "YKSTSKEQQTMDNLEKQLICPICL [F4T]"
  protein stability index: 2.44
- seqText: "YKSFSKEQQTMDNLEKWLICPICL [Q17W]"
  protein stability index: 2.31
- seqText: "YKNFSKEQQTMDNLEKQLICPICL [S3N]"
  protein stability index: 2.32
- seqText: "YKSFSKEQQTMDNLEKQLICPYCL [I22Y]"
  protein stability index: 2.55
- seqText: "YKSFSKEQQTMDNLDKQLICPICL [E15D]"
  protein stability index: 2.13
- seqText: "YKSFSKEQQTMDNLEKQLICPNCL [I22N]"
  protein stability index: 3.48
- seqText: "YKSFSKEQQTMDKLEKQLICPICL [N13K]"
  protein stability index: 2.09
- seqText: "YKSFSKEQQTMDNLEKQLICPTCL [I22T]"
  protein stability index: 2.55
- seqText: "YKSFSKEQQTMDNLEKQLICPIVL [C23V]"
  protein stability index: 1.7
- seqText: "YKSFSKEQQTMDNREKQLICPICL [L14R]"
  protein stability index: 2.58
- seqText: "YTSFSKEQQTMDNLEKQLICPICL [K2T]"
  protein stability index: 1.83
- seqText: "YKSFSKEQQTMSNLEKQLICPICL [D12S]"
  protein stability index: 1.93
- seqText: "YKSKSKEQQTMDNLEKQLICPICL [F4K]"
  protein stability index: 2.63
- seqText: "YKSFSKEQQTMDNLCKQLICPICL [E15C]"
  protein stability index: 2.72
- seqText: "YKSASKEQQTMDNLEKQLICPICL [F4A]"
  protein stability index: 2.74
- seqText: "YFSFSKEQQTMDNLEKQLICPICL [K2F]"
  protein stability index: 2.09
- seqText: "YKSFSKEQQTMDNLEKQLICPIRL [C23R]"
  protein stability index: 2.37
- seqText: "YKSFSKAQQTMDNLEKQLICPICL [E7A]"
  protein stability index: 2.08
- seqText: "YKSFSKEQQTMDNLEKCLICPICL [Q17C]"
  protein stability index: 2.12
- seqText: "YKSNSKEQQTMDNLEKQLICPICL [F4N]"
  protein stability index: 2.45
- seqText: "YKSFSKEQQTMDNLEKQLICPICC [L24C]"
  protein stability index: 2.07
- seqText: "YKSFSKEQQTMDNLEKQLICPSCL [I22S]"
  protein stability index: 2.75
- seqText: "YKSFSKEQQTMDNLEKLLICPICL [Q17L]"
  protein stability index: 2
- seqText: "YKSFSKEQQTMDNWEKQLICPICL [L14W]"
  protein stability index: 2.81
- seqText: "YKSFSKEQQTMDNLMKQLICPICL [E15M]"
  protein stability index: 2.55
- seqText: "YKSFSKEQQTMKNLEKQLICPICL [D12K]"
  protein stability index: 2.98
- seqText: "YKSFSKWQQTMDNLEKQLICPICL [E7W]"
  protein stability index: 1.83
- seqText: "YKSFSKEQQTMDNLEVQLICPICL [K16V]"
  protein stability index: 1.76
- seqText: "YKFFSKEQQTMDNLEKQLICPICL [S3F]"
  protein stability index: 1.65
- seqText: "YKSFSEEQQTMDNLEKQLICPICL [K6E]"
  protein stability index: 2.04
- seqText: "YKSFSLEQQTMDNLEKQLICPICL [K6L]"
  protein stability index: 2.91
- seqText: "YKSFSKEQCTMDNLEKQLICPICL [Q9C]"
  protein stability index: 2.15
- seqText: "YKSFSKEQQTMDNLEKNLICPICL [Q17N]"
  protein stability index: 1.89
- seqText: "YGSFSKEQQTMDNLEKQLICPICL [K2G]"
  protein stability index: 2.92
- seqText: "YKSFSKEQQTMDNLEKQLICPICQ [L24Q]"
  protein stability index: 2.22
- seqText: "EKSFSKEQQTMDNLEKQLICPICL [Y1E]"
  protein stability index: 2.48
- seqText: "YKSFSKEQQTMDNLEKQLICPICG [L24G]"
  protein stability index: 2.46
- seqText: "YKSFSKEQQTMDNLEKQPICPICL [L18P]"
  protein stability index: 2.87
- seqText: "YKSFSKEQQTMDNLEKQLICPIIL [C23I]"
  protein stability index: 1.93
- seqText: "YKSPSKEQQTMDNLEKQLICPICL [F4P]"
  protein stability index: 2.9
- seqText: "YKPFSKEQQTMDNLEKQLICPICL [S3P]"
  protein stability index: 2.05
